- Test system: JAK1-dependent STAT6 phosphorylation downstream of IL-13 stimulation in TF-1 human erythroleukemia cells
- Protocol: cells
- Conditions Used: TF-1, read-out: IL-13-pSTAT6 IC50
Hi! Could you tag entries with IC50 below 30 nM as y, and those at or above as n? Much appreciated.

Completed entries (count: 2):
{"Molecule": "O=C(CCC(F)(F)F)N1CC=C(c2cccn3nc(Nc4ccc(C(=O)N5CCCC(O)(CN6CCCC6)CC5)cc4)nc23)CC1 (centres unmarked)", "Class Assignment": "n"}
{"Molecule": "CN(CCN)C(=O)c1ccc(Nc2nc3c(C4=CCN(C(=O)CCC(F)(F)F)CC4)cccn3n2)cc1", "Class Assignment": "n"}

Incoming: Please determine if CN1CCN(CCNC(=O)c2ccc(Nc3nc4c(C5=CCN(C(=O)CCC(F)(F)F)CC5)cccn4n3)cc2)CC1 is below 30 nM in terms of IC50.
Outgoing: y

Incoming: Moving on to CN1CCC(N(C)C(=O)c2ccc(Nc3nc4c(N5CCN(c6ccccc6)CC5)cccn4n3)cc2)CC1
Outgoing: n

Incoming: Moving on to O=C(c1ccc(Nc2nc3c(N4CCC(O)(c5ccc(Cl)cc5)CC4)cccn3n2)cc1)N1CCOC2(CCNCC2)C1
Outgoing: n

Incoming: Moving on to CC(C)c1ccc(C2(O)CCN(c3cccn4nc(Nc5ccc(C(=O)N(C)C6CCN(C)CC6)cc5)nc34)CC2)cc1
Outgoing: n

Incoming: Moving on to CN1CCCC(CN(C)C(=O)c2ccc(Nc3nc4c(C5=CCN(C(=O)CCC(F)(F)F)CC5)cccn4n3)cc2)C1 (centres unmarked)
Outgoing: y

---

- Test system: JAK1-dependent STAT6 phosphorylation downstream of IL-13 stimulation in TF-1 human erythroleukemia cells
- Protocol: cells
- Conditions Used: TF-1, read-out: IL-13-pSTAT6 IC50
Experimental Endpoint: IC50 (nM)
Numbers only; they are read as nM.

Consider the worked cases shown below.
{"Compound": "O=C(c1ccc(Nc2nc3c(N4CCC(O)(c5ccc(Cl)cc5)CC4)cccn3n2)cc1)N1CC2(CCNCC2)C1", "Readout Unit": "nM", "IC50": 106}
{"Compound": "CNC1CCN(C(=O)c2ccc(Nc3nc4c(C5=CCN(C(=O)CCC(F)(F)F)CC5)cccn4n3)cc2)C1 (stereo not shown)", "Readout Unit": "nM", "IC50": 62.6}
{"Compound": "N#CCCN1CCN(C(=O)c2ccc(Nc3nc4c(C5=CCN(C(=O)CCC(F)(F)F)CC5)cccn4n3)cc2)CC1", "Readout Unit": "nM", "IC50": 6.6}

Incoming: Consider the compound shown here: Cc1cccc(CCNC(=O)c2ccc(Nc3nc4c(C5=CCN(C(=O)CCC(F)(F)F)CC5)cccn4n3)cc2)n1 What is its recorded IC50?
Outgoing: 7.4

Incoming: Moving on to O=C(NCCN1CCNCC1)c1ccc(Nc2nc3c(N4CCC(O)(c5ccc(Cl)cc5)CC4)cccn3n2)cc1
Outgoing: 462

Incoming: Moving on to CNCCNC(=O)c1ccc(Nc2nc3c(C4=CCN(C(=O)CCC(F)(F)F)CC4)cccn3n2)cc1
Outgoing: 181

Incoming: Moving on to O=C(CCC(F)(F)F)N1CC=C(c2cccn3nc(Nc4ccc(C(=O)N5CCC6(CC5)CNCCO6)cc4)nc23)CC1
Outgoing: 38.4
